# study_target: FGFR3 (K650E) (Homo sapiens, UniProt P22607, K650E)
# Construct: amino acids 411-806 of the cytoplasmic domain of human FGFR-3, N-terminally fused to GST; made in house; host or cells: Sf9 insect cells (baculovirus)
# Sequence (P22607 411-806 K650E): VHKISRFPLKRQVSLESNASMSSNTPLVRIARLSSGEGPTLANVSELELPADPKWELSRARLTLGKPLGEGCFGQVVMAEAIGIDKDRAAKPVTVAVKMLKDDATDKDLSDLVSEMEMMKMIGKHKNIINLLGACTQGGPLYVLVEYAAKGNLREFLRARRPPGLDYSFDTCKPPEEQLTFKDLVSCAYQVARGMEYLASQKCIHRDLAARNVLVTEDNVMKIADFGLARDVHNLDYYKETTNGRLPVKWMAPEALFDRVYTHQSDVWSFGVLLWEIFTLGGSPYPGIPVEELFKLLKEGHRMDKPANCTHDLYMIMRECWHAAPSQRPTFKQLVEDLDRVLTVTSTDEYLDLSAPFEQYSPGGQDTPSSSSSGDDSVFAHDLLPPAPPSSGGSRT
# assay_method_text: Recombinant GST-FGFR-3-K650E tyrosine kinase assay (33P into poly(Glu,Tyr))
# Type: biochemical
# experimental_context: 10 μM; Examples 1 to 169; read-out: FGFR3 (K650E) inhibition at 10 μM
measurement_name: inhibition at 10 µM

Recorded results for 3 compounds are shown here.
- COc1ccc(NC(=O)Nc2cc(Nc3ccc(N4CCN(C)CC4)cc3)ncn2)cc1OC: 27 to 100%
- CCN(CC)CCOc1ccc(Nc2cc(N(C)C(=O)Nc3c(Cl)c(OC)cc(OC)c3Cl)ncn2)cc1: 27 to 100%
- O=C(Nc1ccccc1)Nc1cc(Nc2cccc(Cl)c2)ncn1: 27 to 100%

Shifting focus to the compound that follows.
### Prompt Which measured inhibition at 10 µM value corresponds to `CCN(CC)c1ccc(Nc2cc(NC(=O)Nc3c(Cl)cccc3Cl)ncn2)cc1` ?
### Response 27 to 100%

The measured values listed here are drawn from patent US8552002B2.
